# tested-on: T1, CD3 epsilon homodimer protein (UniProt P07766 23-126)
# T1 construct: also called CD3 (CD3 epsilon)
# procedure-text: SPR, antibody over immobilised CD3e homodimer;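 further: SPR at 25 °C with CD3 epsilon homodimer amine-coupled to a CM4 sensor chip and antibody flowed over as analyte in HBS-EP+ running buffer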
readout-label: KD ratio to GLS3000
Answer with a bare number; do not write a unit.

- binder: "CE115HA000/GLS3000 N28L (antibody, IgG1, name in Kabat numbering, V domains shown, one-arm IgG1) VH: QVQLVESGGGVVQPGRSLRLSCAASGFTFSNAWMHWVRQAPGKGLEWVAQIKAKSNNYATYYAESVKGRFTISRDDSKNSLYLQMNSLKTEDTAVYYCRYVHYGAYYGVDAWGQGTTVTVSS VL: DIVMTQSPLSLPVTPGEPASISCRSSQSLVHSLRNTYLHWYQQKPGQAPRLLIYKVSNRFSGVPDRFSGSGSGTDFTLKISRVEAEDVGVYYCGQGTQVPYTFGQGTKLEIK"
  KD ratio to GLS3000: 3.34
- binder: "CE115HA000/GLS3000 T92P (antibody, IgG1, name in Kabat numbering, V domains shown, one-arm IgG1) VH: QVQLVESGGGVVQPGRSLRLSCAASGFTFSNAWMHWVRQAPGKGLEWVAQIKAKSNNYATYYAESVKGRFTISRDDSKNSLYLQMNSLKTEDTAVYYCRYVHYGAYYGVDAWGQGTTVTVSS VL: DIVMTQSPLSLPVTPGEPASISCRSSQSLVHSNRNTYLHWYQQKPGQAPRLLIYKVSNRFSGVPDRFSGSGSGTDFTLKISRVEAEDVGVYYCGQGPQVPYTFGQGTKLEIK"
  KD ratio to GLS3000: 26.7

Attention now turns to another entry.
[Q] Dear colleague, please send me the reported KD ratio to GLS3000 for CE115HA000/GLS3000 S56I (antibody, IgG1, name in Kabat numbering, V domains shown, one-arm IgG1) VH: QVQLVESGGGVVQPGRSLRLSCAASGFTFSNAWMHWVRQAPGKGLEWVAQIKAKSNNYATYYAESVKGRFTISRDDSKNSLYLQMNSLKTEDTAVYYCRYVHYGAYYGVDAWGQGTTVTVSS VL: DIVMTQSPLSLPVTPGEPASISCRSSQSLVHSNRNTYLHWYQQKPGQAPRLLIYKVSNRFIGVPDRFSGSGSGTDFTLKISRVEAEDVGVYYCGQGTQVPYTFGQGTKLEIK when you can.
[A] 1.01
